# MEASURED TARGET: WDR5 (Homo sapiens, UniProt P61964)
# PROCEDURE DETAILS: Surface Plasmon Resonance (SPR) assay
# Type: binding
# Design: Full length WDR5 with an N-terminal His tag and C-terminal AviTag; His tag (N); made in house; host or cells: E. coli
# CONDITIONS: read-out: SPR Kd
# Description: Exemplary compounds of the application were dissolved in 100% DMSO at 10 mM, assayed fresh, and then stored at −20° C. for repeat studies and other experiments. Full length WDR5 with an N-terminal His tag and C-terminal AviTag (Avidity Inc.) was expressed in E. coli with coexpression of BirA to biotin label the protein in vivo. Purification was via Ni-NTA. SPR studies were performed using a Biacore™ T200 instrument (GE Health Sciences Inc.). […]
pKd: −log10 of the molar value.
READOUT TYPE: pKd

> print(dat)
                                   compound  readout.type   val
1  C[C@@H]1CN(c2cc(F)c(-c3ccc(C(=O)NC(C)(C)CC(C)(C)C)c(F)c3F)c(F)c2NC(=O)c2c[nH]c(=O)cc2C(F)(F)F)C[C@H](C)N1C [Example 27]           pKd  8.95
2  COc1cc(N2CC=C(c3c(F)cc(N4CCN(C)[C@@H](C)C4)c(NC(=O)c4c[nH]c(=O)cc4C(F)F)c3F)CC2)ncn1 [Example 67]           pKd  9.01
3  C[C@@H]1CN(c2cc(F)c(C3=CCN(c4ccnc(C#N)n4)CC3)c(F)c2NC(=O)c2c[nH]c(=O)cc2C(F)(F)F)C[C@H](C)N1C [Example 152]           pKd  9.17
4  C[C@H]1CN(c2cc(F)c(C3=CCCN(C(=O)OC4CC(F)(F)C4)C3)c(F)c2NC(=O)c2c[nH]c(=O)cc2C(F)F)CCN1C [Example 43]           pKd  8.77

P: C[C@H]1CN(c2cc(F)c(C3=CCN(c4ccnc(C#N)n4)CC3)c(F)c2NC(=O)c2c[nH]c(=O)cc2C(F)(F)F)CCN1C [Example 112]
Q: C[C@@H]1CN(c2cc(F)c(-c3cnc(N4CCOCC4)nc3)c(F)c2NC(=O)c2c[nH]c(=O)cc2C(F)F)C[C@H](C)N1C [Example 41]
Exam item: I need your help: which of the pair P , Q has higher pKd? Which one? Tell me its label.
Marked response: Q
(Q: 9.08, P: 8.62)

###

# MEASURED TARGET: WDR5 (Homo sapiens, UniProt P61964)
# PROCEDURE DETAILS: Surface Plasmon Resonance (SPR) assay
# Format: binding
# Set-up: Full length WDR5 with an N-terminal His tag and C-terminal AviTag; His tag (N); made in house; host or cells: E. coli
# CONDITIONS: read-out: SPR Kd
READOUT TYPE: Kd (nM)

Take a look at these entries with their results.
> print(dat)
                                   compound                      measured.target  readout.type  scale.unit   val
1  C[C@@H]1CN(c2cc(F)c(-c3ccc(N4CCOCC4)c(F)c3)c(F)c2NC(=O)c2c[nH]c(=O)cc2C(F)(F)F)C[C@H](C)N1C [Example 9]  WDR5 (Homo sapiens, UniProt P61964)            Kd          nM  1.33
2  COc1cc(N2CC=C(c3c(F)cc(N4C[C@@H](C)N(C)[C@@H](C)C4)c(NC(=O)c4c[nH]c(=O)cc4C(F)(F)F)c3F)C2)ncn1 [Example 143]  WDR5 (Homo sapiens, UniProt P61964)            Kd          nM  0.92
3  C[C@@H]1CN(c2ncc(-c3c(F)cc(N4CCN(C)[C@@H](C)C4)c(NC(=O)c4cn(C)c(=O)cc4C(F)(F)F)c3F)cn2)C[C@H](C)O1 [Example 164]  WDR5 (Homo sapiens, UniProt P61964)            Kd          nM  1.16

1: C[C@@H]1CN(c2cc(F)c(-c3cnc(N4C[C@H]5CC[C@@H](C4)O5)nc3)c(F)c2NC(=O)c2c[nH]c(=O)cc2C(F)(F)F)C[C@H](C)N1C [Example 90]
2: COCCOc1ccc(-c2c(F)cc(N3C[C@@H](C)N(C)[C@@H](C)C3)c(NC(=O)c3c[nH]c(=O)cc3C(F)(F)F)c2F)cn1 [Example 6]
3: C[C@@H]1CN(c2cc(F)c(-c3ccc(C(N)=O)c(F)c3F)c(F)c2NC(=O)c2c[nH]c(=O)cc2C(F)(F)F)C[C@H](C)N1C [Example 26]
Exam item: In this exercise, place the 3 compounds in ascending sequence of their recorded Kd. Record the ranking as a list of labels in the requested order.
Marked response: 1, 2, 3

###

# MEASURED TARGET: WDR5 (Homo sapiens, UniProt P61964)
READOUT TYPE: IC50 (nM)

// known answers, use as guide
> print(dat)
                                   molecule  readout.type  scale.unit   val
1  C[C@@H]1CN(c2ncc(-c3c(F)cc(N4C[C@@H](C)N(C)[C@@H](C)C4)c(NC(=O)c4c[nH]c(=O)cc4C(F)F)c3F)cn2)C[C@@H](C)O1 [Example 116]          IC50          nM  15.2
2  C[C@H]1CN(c2ccc(-c3c(F)cc(N4CCN(C)[C@@H](C)C4)c(NC(=O)c4ccc(F)cc4C(F)F)c3F)cn2)CCO1 [Example 179]          IC50          nM  20.1
3  C[C@@H]1CN(c2cc(F)c(-c3ccc(OCC4CC4)cc3)c(F)c2NC(=O)c2c[nH]c(=O)cc2C(F)(F)F)C[C@H](C)N1C [Example 7]          IC50          nM  17.9
4  COc1cc(N2CCC=C(c3c(F)cc(N4C[C@@H](C)N(C)[C@@H](C)C4)c(NC(=O)c4c[nH]c(=O)cc4C(F)(F)F)c3F)C2)ncn1 [Example 142]          IC50          nM  13.2

P: C[C@@H]1CN(c2cc(F)c(-c3cnc4c(c3)OCCO4)c(F)c2NC(=O)c2c[nH]c(=O)cc2C(F)(F)F)C[C@H](C)N1C [Example 73]
Q: C[C@@H]1CN(c2cc(F)c(C3=CCCN(c4ncccn4)C3)c(F)c2NC(=O)c2c[nH]c(=O)cc2C(F)F)C[C@H](C)N1C [Example 21]
Exam item: Sort P and Q by IC50 descending and give the first. Mark your selection by writing its label.
Marked response: Q
(Q: 37.1 nM, P: 16.8 nM)

###

# MEASURED TARGET: WDR5 (Homo sapiens, UniProt P61964)
# PROCEDURE DETAILS: Surface Plasmon Resonance (SPR) assay
# Format: binding
# Design: Full length WDR5 with an N-terminal His tag and C-terminal AviTag; His tag (N); made in house; host or cells: E. coli
# CONDITIONS: read-out: SPR Kd
pKd: −log10 of the molar value.
READOUT TYPE: pKd

Check out these entries, answers already filled in.
> print(dat)
                           molecular.string  readout.type   val
1  C[C@@H]1CN(c2cc(F)c(-c3ccc4c(c3)OCCO4)c(F)c2NC(=O)c2c[nH]c(=O)cc2C(F)(F)F)C[C@H](C)N1C           pKd  9.15
2  C[C@H]1CN(c2cc(F)c(C3=CCCN(c4ncc(F)cn4)C3)c(F)c2NC(=O)c2c[nH]c(=O)cc2C(F)(F)F)CCN1C           pKd  8.84
3  C[C@@H]1CN(c2cc(F)c(C3=CCN(C(=O)OC4(C)CCC4)CC3)c(F)c2NC(=O)c2c[nH]c(=O)cc2C(F)(F)F)C[C@H](C)N1C           pKd  8.82
4  C[C@@H]1CN(c2ccc(-c3c(F)cc(N4C[C@@H](C)N(C)[C@@H](C)C4)c(NC(=O)c4c[nH]c(=O)cc4C(F)(F)F)c3F)cn2)CCO1           pKd  9.06
5  C[C@@H]1CN(c2ccc(-c3c(F)cc(N4CCN(C)[C@@H](C)C4)c(NC(=O)c4c[nH]c(=O)cc4C(F)(F)F)c3F)cn2)CCO1           pKd  9.00

P: C[C@@H]1CN(c2cc(F)c(-c3cnc(N4CCO[C@@H](C)C4)nc3)c(F)c2NC(=O)c2c[nH]c(=O)cc2C(F)F)C[C@H](C)N1C
Q: C[C@@H]1CN(c2cc(F)c(-c3ccc(N4CCOCC4)cc3)c(F)c2NC(=O)c2c[nH]c(=O)cc2C(F)(F)F)C[C@H](C)N1C
Exam item: In the pair P and Q , the larger recorded pKd belongs to which? Refer to your chosen item by its label in the answer.
Marked response: P
(P: 9.16, Q: 8.45)
